Task for the reader: assign each of the following sequences its reported protein stability index.
Test system: Saccharomyces cerevisiae
Assay: protein stability index of tFT-peptide fusion (C-terminal peptide) (PSI (0-1 scale)); higher = more stable (slower turnover);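 further: PSI is a weighted mean of sequencing reads over stability bins, variants kept only with over 10 reads, mCherry proximal and sfGFP distal, peptide attached via GGGS linker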
Conditions: genetic background: wild type; temperature: 30 C
# respond with the number and nothing more

Look at this sequence and give its reported protein stability index. "VTPLPSLPHHRA"
0.604

Look at this sequence and give its reported protein stability index. "SSRTPPRFYSLP"
0.708

Look at this sequence and give its reported protein stability index. "GKIKKTTDKILI"
0.639

Look at this sequence and give its reported protein stability index. "PSPPAPLSLLLP"
0.645

Look at this sequence and give its reported protein stability index. "STKGAIKVEECI"
0.636

Look at this sequence and give its reported protein stability index. "PPPSSPTPPHSR"
0.738

Look at this sequence and give its reported protein stability index. "CGGAKLPEQCQK"
0.681

Look at this sequence and give its reported protein stability index. "VIQMVIYEKDQR"
0.681

Look at this sequence and give its reported protein stability index. "SGAGAMPPCSLP"
0.697

Look at this sequence and give its reported protein stability index. "PLSCFIPPVSSW"
0.666

Look at this sequence and give its reported protein stability index. "GSRFCPHVGICI"
0.657

Look at this sequence and give its reported protein stability index. "LWQGGRAFWQPV"
0.679

Look at this sequence and give its reported protein stability index. "GEGTQGVSIGPR"
0.711

Look at this sequence and give its reported protein stability index. "ARSTGATSEHKQ"
0.667

Look at this sequence and give its reported protein stability index. "VLFLESWLRFRT"
0.623

Look at this sequence and give its reported protein stability index. "LNIPARVSGAVV"
0.636

Look at this sequence and give its reported protein stability index. "RLPPGATPYPPR"
0.711

Look at this sequence and give its reported protein stability index. "VNAVLFWPRQLS"
0.619

Look at this sequence and give its reported protein stability index. "ARPPSLLLLASF"
0.648

###

Tested on: Saccharomyces cerevisiae
Assay: protein stability index of tFT-peptide fusion (C-terminal peptide) (PSI (0-1 scale)); higher = more stable (slower turnover)
Details: genetic background: das1 deletion; temperature: 30 C
Task for the reader: assign each of the following sequences its reported protein stability index.
# respond with the number and nothing more

Look at this sequence and give its reported protein stability index. "GRPYHLCLFSCF"
0.646

Look at this sequence and give its reported protein stability index. "GCILSLCYAVST"
0.332

Look at this sequence and give its reported protein stability index. "PCVLAIYVWIRS"
0.154

Look at this sequence and give its reported protein stability index. "PWLLHTPLSLVF"
0.335

Look at this sequence and give its reported protein stability index. "FCVLLFYCFFFF"
0.276

Look at this sequence and give its reported protein stability index. "LSLLCFVASVVA"
0.238

Look at this sequence and give its reported protein stability index. "CFWLLSSLLLFL"
0.429

Look at this sequence and give its reported protein stability index. "FFPFHPHVLRLL"
0.477

Look at this sequence and give its reported protein stability index. "FSLFYYIHLSVA"
0.169

Look at this sequence and give its reported protein stability index. "ARKWVAVTVTLW"
0.187

###

Tested on: Saccharomyces cerevisiae
Test: protein stability index of tFT-peptide fusion (C-terminal peptide) (PSI (0-1 scale)); higher = more stable (slower turnover)
Settings: genetic background: das1 deletion; temperature: 30 C
Criterion: protein stability index meeting or surpassing 0.4. Met: true (1). Not met: false (0).

Would you say "VLVVVRSLSFLS" shows protein stability index at minimum 0.4?
false (0)

Would you say "TYNVMFSPWRKA" shows protein stability index at minimum 0.4?
true (1)

Would you say "SCLFMLFPLVSV" shows protein stability index at minimum 0.4?
true (1)

Would you say "YAFYLFSRILAA" shows protein stability index at minimum 0.4?
false (0)

Would you say "SDGGVVRGGCRG" shows protein stability index at minimum 0.4?
true (1)

Would you say "VCFFLFWCLSFS" shows protein stability index at minimum 0.4?
false (0)

Would you say "LRMSLLVFLLFA" shows protein stability index at minimum 0.4?
false (0)

Would you say "FSIFFFLLPSSL" shows protein stability index at minimum 0.4?
true (1)

Would you say "KLKTSHILIKQT" shows protein stability index at minimum 0.4?
true (1)

Would you say "DLAWAIGRLTKG" shows protein stability index at minimum 0.4?
true (1)

###

Test system: Saccharomyces cerevisiae
Experiment: protein stability index of tFT-peptide fusion (C-terminal peptide) (PSI (0-1 scale)); higher = more stable (slower turnover)
Conditions: genetic background: das1 deletion; temperature: 30 C
Criterion: protein stability index meeting or surpassing 0.6. Met: label 1. Not met: label 0.

Would you say "EMISRNVFTYLS" shows protein stability index at minimum 0.6?
label 1

Would you say "LGGVGTLVHCFV" shows protein stability index at minimum 0.6?
label 0

Would you say "DDESLVGRWRKV" shows protein stability index at minimum 0.6?
label 1

Would you say "KKKKNIKIKKQI" shows protein stability index at minimum 0.6?
label 1

Would you say "AWGSWTLCVAVH" shows protein stability index at minimum 0.6?
label 0

Would you say "FAVHHLRYILLV" shows protein stability index at minimum 0.6?
label 0

Would you say "SGFLRFRGLVCY" shows protein stability index at minimum 0.6?
label 0

Would you say "AVPTSPYSLIVY" shows protein stability index at minimum 0.6?
label 0

Would you say "ALLYIVVGWSLS" shows protein stability index at minimum 0.6?
label 0

Would you say "FFIVGACAYVFA" shows protein stability index at minimum 0.6?
label 0

Would you say "CFSIPLVILNVL" shows protein stability index at minimum 0.6?
label 0

Would you say "GPNWCSVCQGVG" shows protein stability index at minimum 0.6?
label 0

Would you say "LFCVCFYGRIFL" shows protein stability index at minimum 0.6?
label 0

Would you say "KLSLRYLLVSLI" shows protein stability index at minimum 0.6?
label 0

Would you say "LVLCCGFWFRAV" shows protein stability index at minimum 0.6?
label 0

Would you say "LSFLCFSTVLHC" shows protein stability index at minimum 0.6?
label 0

Would you say "KERNKISQRKLT" shows protein stability index at minimum 0.6?
label 1

Would you say "GRRLGLLNLLSY" shows protein stability index at minimum 0.6?
label 1

Would you say "LWAVGVATDWGG" shows protein stability index at minimum 0.6?
label 1

Would you say "LFRGVWYYFLVR" shows protein stability index at minimum 0.6?
label 0

Would you say "SSVGLFVLLCLV" shows protein stability index at minimum 0.6?
label 0

Would you say "MWRWASKCRFSM" shows protein stability index at minimum 0.6?
label 1

Would you say "YCFLSWVLMCCF" shows protein stability index at minimum 0.6?
label 0

Would you say "NFSALECKVQLT" shows protein stability index at minimum 0.6?
label 1

Would you say "CCLGVIASFIVW" shows protein stability index at minimum 0.6?
label 0

Would you say "PDRSTILHISGF" shows protein stability index at minimum 0.6?
label 1

Would you say "SPPHSPSALPPP" shows protein stability index at minimum 0.6?
label 1

Would you say "RSFPCITVFIRA" shows protein stability index at minimum 0.6?
label 0

Would you say "SFFWAMSLLCFV" shows protein stability index at minimum 0.6?
label 0

Would you say "AFRLRHEIISLM" shows protein stability index at minimum 0.6?
label 1

Would you say "PSLPPLPPFAAL" shows protein stability index at minimum 0.6?
label 1

Would you say "FIGVLVFSWLLF" shows protein stability index at minimum 0.6?
label 0

Would you say "WLSWATRRIVLG" shows protein stability index at minimum 0.6?
label 0

Would you say "WAIMGLIIFCLF" shows protein stability index at minimum 0.6?
label 0

Would you say "LLYPSKFCITAI" shows protein stability index at minimum 0.6?
label 0

Would you say "CRFYIRITRRYS" shows protein stability index at minimum 0.6?
label 0

Would you say "VWCVFHVWSGRL" shows protein stability index at minimum 0.6?
label 0

###

Test system: Saccharomyces cerevisiae
Assay: protein stability index of tFT-peptide fusion (C-terminal peptide) (PSI (0-1 scale)); higher = more stable (slower turnover)
Conditions: genetic background: das1 deletion; temperature: 37 C
just bin them by protein stability index: A = under 0.4, B = from 0.4 up to 0.6, C = 0.6 and over

Which bin should I file "RWGLCFVHVTMF" under?
A

Which bin should I file "APPRSLSPPLLS" under?
C

Which bin should I file "VWGLGWLVVGVG" under?
A

Which bin should I file "PISLYFVWFFFF" under?
A

Which bin should I file "LFCVCFYGRIFL" under?
B

Which bin should I file "KLKTSHILIKQT" under?
C

Which bin should I file "VWCVFHVWSGRL" under?
C

Which bin should I file "QKGLFYCVILYC" under?
A

Which bin should I file "FFYVFPFFIFRF" under?
B

Which bin should I file "CVEACVWYNAGL" under?
C

Which bin should I file "YVASSWRHCFII" under?
C

Which bin should I file "ACACFWVVWVGW" under?
B

Which bin should I file "DLAWAIGRLTKG" under?
C

Which bin should I file "VWPLAFFLRFFI" under?
C
